Exercise: state measured Post-emergence action [%] against ECHCG for each of the compounds provided.
- System: ECHCG
- measurementProtocol: Post-emergence herbicidal effect against ECHCG
- Assay type: in vivo, Echinochloa crus-galli
- assaySetup: one-leaf stage, 80 g/ha, assessed visually after about 3 weeks vs untreated controls, 100% = plants have died

// query Which measured Post-emergence action [%] against ECHCG value corresponds to CC#Cc1cc(C)c(C2=C(O)C3(CCC(OCC)CC3)NC2=O)c(Cl)c1 (centres unmarked) ?
// result 100%

// query Which measured Post-emergence action [%] against ECHCG value corresponds to CC#Cc1cc(C)c(C2=C(OC(=O)OCC)C3(CCCC(OCC(C)C)C3)NC2=O)c(Cl)c1 (centres unmarked) ?
// result 100%

// query Which measured Post-emergence action [%] against ECHCG value corresponds to CC#Cc1cc(Cl)c(C2=C(O)C3(CCC(OCC)CC3)NC2=O)c(CC)c1 (centres unmarked) ?
// result 100%

// query Which measured Post-emergence action [%] against ECHCG value corresponds to CC#Cc1cc(C)c(C2=C(OC(=O)OC)C3(CCC(OC)CC3)NC2=O)c(Cl)c1 (centres unmarked) ?
// result 100%

// query Which measured Post-emergence action [%] against ECHCG value corresponds to CC#Cc1cc(Br)c(C2=C(O)C3(CCC(OC)CC3)NC2=O)c(C2CC2)c1 (centres unmarked) ?
// result 100%

// query Which measured Post-emergence action [%] against ECHCG value corresponds to CC#Cc1cc(C)c(C2=C(O)C3(CCCC(OCCC)C3)NC2=O)c(Cl)c1 (centres unmarked) [Example D1] ?
// result 100%

// query Which measured Post-emergence action [%] against ECHCG value corresponds to CC#Cc1cc(Cl)c(C2=C(OC(=O)OC)C3(CCC(OCC)CC3)NC2=O)c(CC)c1 (centres unmarked) ?
// result 100%

// query Which measured Post-emergence action [%] against ECHCG value corresponds to CC#Cc1cc(C)c(C2=C(O)C3(CCC(OC(C)C)CC3)NC2=O)c(Cl)c1 (centres unmarked) ?
// result 100%

// query Which measured Post-emergence action [%] against ECHCG value corresponds to CC#Cc1cc(C)c(C2=C(O)C3(CCC(OCCOC)CC3)NC2=O)c(Cl)c1 (centres unmarked) ?
// result 100%

// query Which measured Post-emergence action [%] against ECHCG value corresponds to CC#Cc1cc(Cl)c(C2=C(O)C3(CCC(OC)CC3)NC2=O)c(C2CC2)c1 (centres unmarked) ?
// result 100%

// query Which measured Post-emergence action [%] against ECHCG value corresponds to CC#Cc1cc(Br)c(C2=C(OC(=O)OCC)C3(CCC(OC)CC3)NC2=O)c(CC)c1 (centres unmarked) ?
// result 90%

// query Which measured Post-emergence action [%] against ECHCG value corresponds to CC#Cc1cc(Br)c(C2=C(OC(=O)OCC)C3(CCCC(OCCOC)C3)NC2=O)c(C2CC2)c1 (centres unmarked) ?
// result 100%

// query Which measured Post-emergence action [%] against ECHCG value corresponds to CC#Cc1cc(Br)c(C2=C(O)C3(CCCC(OCCOC)C3)NC2=O)c(CC)c1 (centres unmarked) ?
// result 90%

// query Which measured Post-emergence action [%] against ECHCG value corresponds to CC#Cc1cc(C)c(C2=C(OC(=O)OCC)C3(CCCC(OCCC)C3)NC2=O)c(Cl)c1 (centres unmarked) ?
// result 100%

// query Which measured Post-emergence action [%] against ECHCG value corresponds to C=CCOC1CCC2(CC1)NC(=O)C(c1c(C)cc(C#CC)cc1Cl)=C2O (centres unmarked) ?
// result 100%

// query Which measured Post-emergence action [%] against ECHCG value corresponds to CC#Cc1cc(Cl)c(C2=C(OC(=O)OCC)C3(CCC(OCC)CC3)NC2=O)c(CC)c1 (centres unmarked) ?
// result 90%

// query Which measured Post-emergence action [%] against ECHCG value corresponds to CC#Cc1cc(C)c(C2=C(OC(=O)OCC)C3(CCC(OCC)CC3)NC2=O)c(Cl)c1 (centres unmarked) ?
// result 100%

Data origin, for the record: patent US20220151230A1
